assay: in vitro; settings: human
Where a name gives a salt, the structure may show the parent alone.
value type: viability at 0.5 µM (%)
Form entry: value (%) — number only.

O=C1C=CN([C@@H]2O[C@H](CO)[C@@H](O)[C@H]2O)C(=O)C1 :: 96
COc1c(C)c2c(c(O)c1C/C=C(\C)CCC(=O)O)C(=O)OC2 :: 100
Cc1c(-c2ccc(O)cc2)n(Cc2ccc(OCCN3CCCCCC3)cc2)c2ccc(O)cc12 [Bazedoxifene HCL] :: 147

Exercise: Report viability at 0.5 µM for COc1ccc2cc1Oc1ccc(cc1)C[C@H]1c3cc(c(OC)cc3CCN1C)Oc1c(OC)c(OC)cc3c1[C@H](C2)N(C)CC3 please.
Solution: 95

Exercise: // next record COc1c(-c2ccc3cc(NS(C)(=O)=O)ccc3c2)cc(-n2ccc(=O)[nH]c2=O)cc1C(C)(C)C
Solution: 96

Exercise: // next record O=C1CCc2ccc(OCCCCN3CCN(c4cccc(Cl)c4Cl)CC3)cc2N1
Solution: 126

Exercise: // next record O=c1[nH]c(=O)n([C@@H]2O[C@H](CO)[C@@H](O)[C@H]2O)cc1F
Solution: 100
